# credit: patent US9167821B2

// logp [a] lookup, one value per entry
- test_parameters: pH 2.3

CCC#CCOc1cccc(C2CC(c3csc(C4CCN(C(=O)Cn5nc(C(F)F)cc5C(F)F)CC4)n3)=NO2)c1 (racemic)	3.83^[a]
C#CCOc1ccc(C2CC(c3csc(C4CCN(C(=O)Cn5nc(C(F)F)cc5C(F)F)CC4)n3)=NO2)cc1 (racemic)	3.14^[a];
CC#CCOc1ccccc1C1CC(c2csc(C3CCN(C(=O)Cn4nc(C(F)F)cc4C(F)F)CC3)n2)=NO1 (racemic)	3.65^[a]
C#CCOc1cccc(F)c1C1CC(c2csc(C3CCN(C(=O)Cn4nc(C(F)F)cc4C(F)F)CC3)n2)=NO1 (racemic)	3.18^[a];
O=C(CC(F)(F)F)Oc1ccccc1C1CC(c2csc(C3CCN(C(=O)Cn4nc(C(F)F)cc4C(F)F)CC3)n2)=NO1 (racemic)	9.43^[a];

Proceeding to the next compound to report its logp [a].
Identify logp [a] associated with the compound CC#CCOc1cccc(C2CC(c3csc(C4CCN(C(=O)Cn5nc(C(F)F)cc5C(F)F)CC4)n3)=NO2)c1 (racemic)
3.29^[a]

----------
- test_parameters: pH 7.8
test_readout: logp [c]

Look over these answered cases.
CCC#CCOc1cccc(C2CC(c3csc(C4CCN(C(=O)Cn5nc(C(F)F)cc5C(F)F)CC4)n3)=NO2)c1 (racemic)	3.74^[c];
C#CCOc1ccccc1C1CC(c2csc(C3CCN(C(=O)Cn4nc(C(F)F)cc4C(F)F)CC3)n2)=NO1 (racemic)	3.23^[c];
CC#CCOc1cccc(C2CC(c3csc(C4CCN(C(=O)Cn5nc(C(F)F)cc5C(F)F)CC4)n3)=NO2)c1 (racemic)	3.33^[c];
C#CCOc1ccc(C2CC(c3csc(C4CCN(C(=O)Cn5nc(C(F)F)cc5C(F)F)CC4)n3)=NO2)cc1 (racemic)	3.08^[c]
C#CCOc1cccc(F)c1C1CC(c2csc(C3CCN(C(=O)Cn4nc(C(F)F)cc4C(F)F)CC3)n2)=NO1 (racemic)	3.15^[c]

Proceeding to the next compound to report its logp [c].
Identify logp [c] associated with the compound O=C(Oc1ccccc1C1CC(c2csc(C3CCN(C(=O)Cn4nc(C(F)F)cc4C(F)F)CC3)n2)=NO1)C1CC1 (racemic)
3.28^[c];

----------
// logp [a] lookup, one value per entry
- test_parameters: pH 2.3

CC#CCOc1ccc(C2CC(c3csc(C4CCN(C(=O)Cn5nc(C(F)F)cc5C(F)F)CC4)n3)=NO2)cc1 (racemic)	3.43^[a]

Identify logp [a] associated with the compound CCC#CCOc1ccc(C2CC(c3csc(C4CCN(C(=O)Cn5nc(C(F)F)cc5C(F)F)CC4)n3)=NO2)cc1 (racemic)
3.76^[a]

Identify logp [a] associated with the compound C#CCOc1cccc(C2CC(c3csc(C4CCN(C(=O)Cn5nc(C(F)F)cc5C(F)F)CC4)n3)=NO2)c1 (racemic)
3.24^[a]

Identify logp [a] associated with the compound C#CCOc1ccccc1C1CC(c2csc(C3CCN(C(=O)Cn4nc(C(F)F)cc4C(F)F)CC3)n2)=NO1 (racemic)
3.28^[a]

Identify logp [a] associated with the compound O=C(Oc1ccccc1C1CC(c2csc(C3CCN(C(=O)Cn4nc(C(F)F)cc4C(F)F)CC3)n2)=NO1)C1CC1 (racemic)
3.34^[a]

Identify logp [a] associated with the compound CC#CCOc1cccc(F)c1C1CC(c2csc(C3CCN(C(=O)Cn4nc(C(F)F)cc4C(F)F)CC3)n2)=NO1 (racemic)
3.46^[a];

Identify logp [a] associated with the compound O=C(Cn1nc(C(F)F)cc1C(F)F)N1CCC(c2nc(C3=NOC(c4cccc(O)c4)C3)cs2)CC1 (racemic)
2.43^[a]

----------
// logp [c] lookup, one value per entry
- test_parameters: pH 7.8

Look over these answered cases.
O=C(Cn1nc(C(F)F)cc1C(F)F)N1CCC(c2nc(C3=NOC(c4cccc(O)c4)C3)cs2)CC1 (racemic)	2.45^[c];
O=C(Cn1nc(C(F)F)cc1C(F)F)N1CCC(c2nc(C3=NOC(c4ccccc4COCC(F)(F)F)C3)cs2)CC1 (racemic)	3.6^[c];
CC#CCOc1ccccc1C1CC(c2csc(C3CCN(C(=O)Cn4nc(C(F)F)cc4C(F)F)CC3)n2)=NO1 (racemic)	3.55^[c];
CC#CCOc1cccc(F)c1C1CC(c2csc(C3CCN(C(=O)Cn4nc(C(F)F)cc4C(F)F)CC3)n2)=NO1 (racemic)	3.42^[c]
O=C(Cn1nc(C(F)F)cc1C(F)F)N1CCC(F)(c2nc(C3=NOC(c4c(F)cccc4F)C3)cs2)CC1 (racemic)	3.34^[c]
C#CCOc1cccc(C2CC(c3csc(C4CCN(C(=O)Cn5nc(C(F)F)cc5C(F)F)CC4)n3)=NO2)c1 (racemic)	3.16^[c];

Identify logp [c] associated with the compound CC#CCOc1ccc(C2CC(c3csc(C4CCN(C(=O)Cn5nc(C(F)F)cc5C(F)F)CC4)n3)=NO2)cc1 (racemic)
3.42^[c];

Identify logp [c] associated with the compound O=C(Cn1nc(C(F)F)cc1C(F)F)N1CCC(c2nc(C3=NOC(c4ccccc4)C3)cs2)CC1 (racemic)
3.11^[c]

Identify logp [c] associated with the compound CCC#CCOc1ccc(C2CC(c3csc(C4CCN(C(=O)Cn5nc(C(F)F)cc5C(F)F)CC4)n3)=NO2)cc1 (racemic)
3.74^[c];

Identify logp [c] associated with the compound O=C(CC(F)(F)F)Oc1ccccc1C1CC(c2csc(C3CCN(C(=O)Cn4nc(C(F)F)cc4C(F)F)CC3)n2)=NO1 (racemic)
3.52^[c]
